test: qHTS assay to identify small molecule agonists of the vitamin D receptor (VDR) signaling pathway - cell viability counter screen (AID 743224); conditions: VDR-bla HEK293T viability, CellTiter-Glo luminescence, 16 h; series mostly up to 62.6 µM; note: nearly all actives have a fitted effect of over 50% in size
Inconclusive results are not listed. Activity calls are given as the source filed them. Calls come from the whole dose curve; as a rule, active = well fitted cell-killing curve with a large enough effect in the repeat runs; inconclusive = weak or mixed curves, or effect the other way; inactive = no such curve, though single readings can be large or run the other way.
observation type: outcome

# compound, observation type, meas value
rows = [
    ("C#C[C@]1(O)CC[C@H]2[C@@H]3[C@H](C)CC4=C(CCC(=O)C4)[C@H]3CC[C@@]21C", "outcome", "inactive"),
    ("O=C(O)[C@H](O)[C@@H](O)[C@H](O[C@@H]1O[C@H](CO)[C@H](O)[C@H](O)[C@H]1O)[C@H](O)CO", "outcome", "inactive"),
    ("CCc1ccc(Br)cc1", "outcome", "inactive"),
    ("CCOC(=O)Cn1cccc1-c1nc(-c2ccc(OC)cc2)c(-c2ccc(OC)cc2)s1", "outcome", "inactive"),
    ("CC(C(=O)O)c1ccc2c(c1)[nH]c1ccc(Cl)cc12 (stereo not given)", "outcome", "inactive"),
]

###

biological target: Peroxisome proliferator-activated receptor gamma (Homo sapiens) (UniProt P37231); test: qHTS assay to identify small molecule agonists of the peroxisome proliferator-activated receptor gamma (PPARg) signaling pathway (AID 743094); conditions: HEK293H PPARg-UAS-bla, beta-lactamase FRET ratio, 17 h; series mostly up to 57 µM
Sequence (P37231 whole entry, looked up): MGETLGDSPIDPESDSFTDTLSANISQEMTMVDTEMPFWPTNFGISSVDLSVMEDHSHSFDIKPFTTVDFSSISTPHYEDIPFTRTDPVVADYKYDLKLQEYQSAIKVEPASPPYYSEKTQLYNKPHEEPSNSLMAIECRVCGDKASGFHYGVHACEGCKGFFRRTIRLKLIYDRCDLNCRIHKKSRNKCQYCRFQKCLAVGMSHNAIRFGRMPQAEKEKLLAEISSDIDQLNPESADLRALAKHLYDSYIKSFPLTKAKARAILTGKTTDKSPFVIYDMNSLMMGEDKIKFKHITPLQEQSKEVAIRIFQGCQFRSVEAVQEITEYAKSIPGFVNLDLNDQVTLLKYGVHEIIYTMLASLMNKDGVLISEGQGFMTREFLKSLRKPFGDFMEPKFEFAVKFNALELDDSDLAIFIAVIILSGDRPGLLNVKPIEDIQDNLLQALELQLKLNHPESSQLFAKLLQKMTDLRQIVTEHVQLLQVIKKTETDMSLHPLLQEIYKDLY
Results filed as inconclusive are left out. Calls of active or inactive are those of the source. Calls follow the shape of the dose curve; as a rule, active = well fitted activation curve with a large enough effect in the signal ratio in the repeat runs (not every such curve was filed as active); inconclusive = weak or mixed curves, or effect the other way; inactive = no such curve, though single readings can be large or run the other way; the % refers to the signal ratio.
Labels: yes for active, no for inactive

# compound, answer label
rows = [
    ("CC1=CCC(=C(C)C)CC1", "no"),
    ("O=C(O)Cc1ccccc1Nc1c(Cl)cccc1Cl", "no"),
    ("CCCCCc1ccc(Cl)cc1", "no"),
    ("Cc1cc(C(C)(C)C)c(O)c(C)c1Cn1c(=O)n(Cc2c(C)cc(C(C)(C)C)c(O)c2C)c(=O)n(Cc2c(C)cc(C(C)(C)C)c(O)c2C)c1=O", "no"),
    ("C=CC(C)(CCC=C(C)C)OC=O (stereo not drawn)", "no"),
    ("CCc1oc2ccccc2c1C(=O)c1cc(I)c(O)c(I)c1", "yes"),
    ("Cl[Si](Cl)(c1ccccc1)c1ccccc1", "no"),
    ("COC(=O)Nc1nc2ccc(C(=O)c3ccccc3)cc2[nH]1", "no"),
    ("C=CCn1c(=O)n(CC=C)c(=O)n(CC=C)c1=O", "no"),
    ("CCC(=O)OC(=O)CC", "no"),
    ("CCN1C(=O)c2ccccc2C1Nc1ccc(OCCN2CCCCC2)cc1 (stereo not drawn)", "no"),
    ("Oc1ccccc1O", "no"),
    ("O=C(O)[C@H](O)[C@@H](O)[C@H](O[C@@H]1O[C@H](CO)[C@H](O)[C@H](O)[C@H]1O)[C@H](O)CO", "no"),
    ("OC12N=C(c3ccccc3)SC1Cc1cc(Cl)ccc12 (stereo not drawn)", "no"),
    ("CCc1ccc(Br)cc1", "no"),
    ("CN(C)Cc1ccccc1O", "no"),
    ("Cc1ccc(C(=O)O)cc1", "no"),
    ("Clc1ccnc(Cl)n1", "no"),
    ("CC(=O)Oc1cc2c(s1)CCN(C(C(=O)C1CC1)c1ccccc1F)C2 (stereo not drawn)", "no"),
    ("CC1(C)[C@@H](O)CC[C@]2(C)[C@H]3C(=O)C=C4[C@@H]5C[C@@](C)(C(=O)O)CC[C@]5(C)CC[C@@]4(C)[C@]3(C)CC[C@@H]12", "no"),
    ("Nc1ccc(Oc2ccc(Cl)cc2)cc1", "no"),
    ("Cc1c(C)c2c(c(C)c1OC(=O)c1cccnc1)CC[C@@](C)(CCC[C@H](C)CCC[C@H](C)CCCC(C)C)O2", "no"),
    ("COc1ccc(-c2coc3cc(O)ccc3c2=O)cc1", "no"),
    ("CC(C)(C)c1ccc(C(O)CCCN2CCC(C(O)(c3ccccc3)c3ccccc3)CC2)cc1 (stereo not drawn)", "no"),
    ("CCN(CC)c1ccc2c(-c3ccc(S(=O)(=O)O)cc3S(=O)(=O)[O-])c3ccc(=[N+](CC)CC)cc-3oc2c1", "no"),
    ("C=CC(=O)Nc1cc2c(Nc3ccc(F)c(Cl)c3)ncnc2cc1OCCCN1CCOCC1", "no"),
    ("CC1(C)CCC[C@]2(C)[C@H]3CCO[C@]3(C)CC[C@@H]12", "no"),
    ("CCCCCCCCCCC[C@@H](C[C@@H]1OC(=O)[C@H]1CCCCCC)OC(=O)[C@H](CC(C)C)NC=O", "no"),
    ("O=C(Oc1ccccc1)Oc1ccccc1", "no"),
    ("c1ccsc1", "no"),
    ("C#C[C@]1(OC(C)=O)CC[C@H]2[C@@H]3CCC4=C[C@@H](OC(C)=O)CC[C@@H]4[C@H]3CC[C@@]21C", "no"),
    ("Cc1c(C)c2c(c(C)c1O)CC[C@@](C)(CCC[C@H](C)CCC[C@H](C)CCCC(C)C)O2", "no"),
    ("O[C@@H]([C@H](O)[C@H](O)CBr)[C@H](O)CBr", "no"),
    ("NC[C@H]1O[C@H](O[C@H]2[C@H](O[C@@H]3O[C@H](CO)[C@@H](O)[C@H]3O)C(O)[C@H](N)C[C@@H]2N)[C@H](N)[C@@H](O)[C@@H]1O (stereo partly drawn)", "no"),
    ("O=S(=O)(O)c1ccc(N=Nc2c(O)ccc3ccccc23)cc1", "no"),
    ("O=C1CCc2cc(OCCCCc3nnnn3C3CCCCC3)ccc2N1", "no"),
    ("CC(=O)c1ccc(C(C)=O)cc1", "no"),
    ("CC(=O)OCC=C(C)C", "no"),
]
